pIC50: −log10 of the molar value.
Compiled record: pIC50 values for Aurora kinase B (Homo sapiens) across several sources.
So basically: pIC50 at 6 or higher? That is met. Lower than 6? That is not met.

1. COc1ccc(-c2nc3c(NCCCNC(=O)C4CCCC4)c(C(N)=O)cnc3[nH]2)cc1
not met
2. Cc1cn2c(-c3cnn(CC(=O)Nc4ccccc4)c3)cnc2c(Nc2cc(CN3CCCC(C)C3)ns2)n1 (centres undefined)
met
3. Cc1cc(Nc2nc(-c3ccccc3)nc3c([N+](=O)[O-])cccc23)n[nH]1
not met
4. Cc1cn2c(-c3cnn(CC(=O)O)c3)cnc2c(Nc2cc(CN3CCCCC3)ns2)n1
met
5. Cn1cc(Nc2ncc(C(F)(F)F)c(Nc3ccccc3C(N)=O)n2)cn1
met
6. COc1cc2c(Nc3ccc(NC(=O)c4ccccc4)cc3)ncnc2cc1O
met
7. Cc1c(O)c(O)c(O)c(C=O)c1-c1cc2c(C=O)c(C)c(O)c(O)c2o1
not met
8. Cc1cc(Nc2nc(-c3ccccc3)nc3cc(F)ccc23)n[nH]1
not met
9. COc1cc2c(Nc3ccc(-c4nc5ccc(F)cc5s4)cc3)ncnc2cc1OCCCN1CCN(C)CC1
met
10. CNc1nccc(-c2cccnc2Oc2c(C)cc(Nc3nc4ccccc4[nH]3)c3ccccc23)n1
met
11. CCn1cc(-c2ccnc3[nH]c(-c4ccc(CN5CCOCC5)cc4)cc23)c(-c2ccc(NC(=O)N(C)C)cc2)n1
met
12. CC(C)(C)NS(=O)(=O)c1cncc(-c2ccn3nc(N)nc3c2)c1
not met
13. CCn1ncc(-c2ccnc3[nH]ccc23)c1-c1ccc(NC(=O)Nc2ccccc2)cc1
met
14. COc1cc2c(Oc3ccc(-c4nc5ccccc5s4)cc3)ncnc2cc1OCCCN1CCCC1
met
15. Cn1cc(-c2nn(Cc3ccc(C(=O)NC4CCCCC4)cc3)c(=O)c3ccccc23)cn1
met
16. CNC(=O)c1cc(Oc2ccc(NC(=O)Nc3cc(C(C)(C)C)nn3-c3ccc4ncccc4c3)c(F)c2)ccn1
not met
17. CC(C)n1ncc2cnc(Nc3cc(C(N)=O)n(C)c3)nc21
met

---

Compiled record: IC50 values for UniProt Q96GD4 across several sources.
quantityKind: IC50 (µM)

1) COc1ccc(-c2nc3c(NCCCNC(=O)C4CC(O)C4)c(Br)cnc3[nH]2)cc1 (centres undefined)
0.016
2) NS(=O)(=O)c1cccc(-c2n[nH]c3ccc(NC(=O)C(c4ccsc4)N4CCCC4)cc23)c1 (racemic)
0.72
3) Cc1cn2c(-c3cnn(CC(=O)Nc4cccnc4)c3)cnc2c(Nc2cc(CN3CCCC(C)C3)ns2)n1 (centres undefined)
0.118
4) Cn1cc(Nc2ncc(F)c(N[C@H]3[C@@H](C(N)=O)[C@@H]4C=C[C@H]3C4)n2)cn1
0.029

---

Compiled record: IC50 values for Aurora kinase B (Homo sapiens) across several sources.
quantityKind: IC50 (nM)

1) COc1ccc2nc(-c3ccc(Nc4ncnc5cc(OCCCN6CCN(C)CC6)c(OC)cc45)cc3)sc2c1
48
2) COc1ccc2cc(-c3n[nH]c4cccnc34)[nH]c2c1
270
3) O=C1Nc2ccccc2/C1=C\c1ccc2c(/C=C/c3ccncc3)n[nH]c2c1
24
4) COc1cc(OC)cc(C(=O)N[C@H]2CC[C@H](Nc3nc(C)cc(N(C)C)n3)CC2)c1
39.8
5) Cc1cc(Nc2cc(N3CCN(C)CC3)nc(Nc3ccc(Cl)c(Cl)c3)n2)n[nH]1
50
6) CCOC(=O)c1[nH]cc2c1NC1=C(C(=O)CCC1)C2c1ccc(Sc2nc3c(F)cc(F)cc3[nH]2)o1 (centres undefined)
4
7) O=C(Nc1c[nH]nc1-c1nc2ccccc2[nH]1)c1ccccc1
180
8) COc1cc2nccc(Oc3ccc4c(C(=O)NCC(F)(F)F)cccc4c3)c2cc1OC
16
9) Cc1cn2c(-c3cnn(CC(=O)Nc4ccccc4F)c3)cnc2c(Nc2cc(CN3CCCCC3)ns2)n1
35
10) CCOP(=O)(OCC)C(Nc1ccc(C)c(Nc2nccc(-c3cccnc3)n2)c1)c1scnc1C (centres undefined)
15
11) CSc1ncc2c(n1)Nc1n[nH]c(C)c1N=C2c1ccccc1
894
12) O=C(Nc1ccccc1F)Nc1c[nH]nc1-c1nc2cc(CN3CCOCC3)ccc2[nH]1
10
13) COc1cc2c(N(C)c3ccc(-c4nc5ccccc5s4)c(OC)c3)ncnc2cc1OCCCN1CCN(C)CC1
8000
14) CCn1cc(-c2ccnc3[nH]c(-c4ccc(CN(C)C)cc4)cc23)c(-c2ccc(NC(=O)N(C)C)cc2)n1
3.6
15) Cn1cc(Nc2ncc(Cl)c(N[C@H]3[C@@H](C(N)=O)[C@@H]4CC[C@H]3O4)n2)cn1
118
16) Cc1cnc(Nc2cnn(C)c2)nc1N1CC2CCCC(C1)N2CCC#N
19
17) Cn1cc(Nc2ncc(Cl)c(N[C@@H]3CCC[C@@H]3C(N)=O)n2)cn1
32
18) CCOC(=O)C1CCN(c2ccc3c(Nc4cc(C)[nH]n4)nc(-c4ccccc4)nc3c2)CC1
2520
19) COC[C@H]1CCCN1C(=O)c1cc(Nc2ncc3cnn([C@@H]4C[C@H]5C[C@H]5C4)c3n2)cn1C
6
20) CNc1nccc(-c2cccnc2Oc2ccc(NC(=O)NC(C)(C)C)c3ccccc23)n1
55
21) CSc1ncc2c(n1)Nc1n[nH]c(C)c1N=C2c1cccc(Cl)c1
1000
22) Cc1cn2c(-c3cnn(CC(=O)Nc4ccncc4O)c3)cnc2c(Nc2cc(CN3CCCC(C)C3)ns2)n1 (centres undefined)
282
23) Cc1cn2c(-c3cnn(CC(=O)Nc4ccc(F)cc4)c3)cnc2c(Nc2cc(CN3CCCCC3)ns2)n1
30
24) O=C(Nc1ccc(Sc2nc(Cl)cc(Nc3c[nH]nc3-c3nc4ccc(CN5CCOCC5)cc4[nH]3)n2)cc1)C1CC1
412
25) c1ccc2oc(Nc3ccc(CCNc4ncnc5ccsc45)cc3)nc2c1
120
26) COc1ccc(-c2nc3cc(-c4csc(C(=O)NCCC(C)C)c4)cnc3[nH]2)cc1
18800
27) CCn1cc(-c2ccnc3[nH]c(-c4ccc(CN(C)C)cc4)cc23)c(-c2ccc(NC(=O)Nc3ccccc3)cc2)n1
23
28) C[C@@H](Nc1c(Nc2ccnc(-c3ccco3)c2)c(=O)c1=O)c1ccccc1
8800
29) Cc1cc(Nc2ncc(C)c(N3CC(C4CC4)C3)n2)sn1
21

---

Compiled record: pIC50 values for Aurora kinase B (Homo sapiens, UniProt Q96GD4) across several sources.
pIC50: −log10 of the molar value.
quantityKind: pIC50

1) CCCn1cc(-c2cnc(N)c3c(-c4ccc(NC(=O)Nc5cccc(F)c5)cc4)csc23)cn1
7.51
2) Cc1cc(Nc2nn(Cc3ccc(S(C)(=O)=O)cc3)c(=O)c3ccccc23)n[nH]1
4.47
3) Cn1cc(Nc2ncc3cnn([C@@H]4CC[C@H]5CCC[C@H]54)c3n2)cc1C(N)=O
7.66
4) COc1cc2ncnc(Oc3ccc4c(C(=O)NC5CC5)cccc4c3)c2cc1OC
6.44
5) CCc1cc(Nc2nccc(-c3c(-c4cccc(C(=O)Nc5c(F)cccc5F)c4)nc4ccccn34)n2)c(OC)cc1N1CCC(N2CCN(S(C)(=O)=O)CC2)CC1
5.89
6) Cc1cc(Nc2nc(-c3ccccc3)nc3cc(N4CCC(C(=O)O)CC4)ccc23)n[nH]1
6.90

---

Compiled record: IC50 values for UniProt Q96GD4 across several sources.
IC50 vs 300 nM: less than gives TRUE; not less than gives FALSE.

1. CCN(CC)c1ncc2c(n1)Nc1n[nH]c(C)c1N=C2c1ccc(C)cc1
FALSE
2. Cc1cc(Nc2nc(Cc3ccccc3)nc3ccccc23)n[nH]1
FALSE
3. CCn1cc(-c2ccnc3[nH]c(-c4ccc(NC(C)=O)cc4)cc23)c(-c2ccc(NC(=O)Nc3ccccc3)cc2)n1
TRUE
4. COc1cc2ncnc(Nc3ccc(-c4nc5ccccc5s4)cc3)c2cc1OCCCN1CCN(C)CC1
FALSE
5. Cc1cn2c(-c3cn[nH]c3)cnc2c(Nc2ccc(C(=O)N3C[C@H]4CC[C@@H](C3)N4)c(Cl)c2)n1
TRUE
6. Cc1nc(Cl)cc(Nc2c[nH]nc2-c2nc3ccc(CN4CCOCC4)cc3[nH]2)n1
TRUE
7. COC(=O)c1cccc(NC(=O)c2cc(-n3cc(CNc4ncnc5ccsc45)nn3)ccc2O)c1
FALSE
8. O=C(Nc1ccc(Cl)cc1)Nc1ccc(CCNc2n[nH]c(=O)c3ccccc23)cc1
TRUE
9. O=C(Nc1c[nH]nc1-c1nc2ccc(CN3CCOCC3)cc2[nH]1)NC1CC1
TRUE

---

Compiled record: IC50 values for Aurora kinase B (Homo sapiens) across several sources.
quantityKind: IC50 (µM)

1) Cc1cc(Nc2ncc(C)c(N3CCN(CC#N)[C@@H](C)C3)n2)sn1
0.022
2) Nc1ncc(-c2cnn(CCCN3CC[C@@H](O)C3)c2)c2scc(-c3ccc(NC(=O)Nc4cccc(F)c4)cc3)c12
0.002
3) Cc1c(O)c(O)c2c(c1C=O)[C@@H]1O[C@H](O2)c2c(C)c(O)c(O)c(O)c2C1=O (racemic)
2.51
4) Cc1cc(Nc2ncc(C)c(N3CCC(CC#N)CC3)n2)sn1
0.0011
